# credit: paper PMC8185074

- TARGET ENTITY: HDAC2 (Homo sapiens)
- Construct: purchased Reaction Biology Corporation (assay run by the CRO)
- Sequence (Q92769 whole entry): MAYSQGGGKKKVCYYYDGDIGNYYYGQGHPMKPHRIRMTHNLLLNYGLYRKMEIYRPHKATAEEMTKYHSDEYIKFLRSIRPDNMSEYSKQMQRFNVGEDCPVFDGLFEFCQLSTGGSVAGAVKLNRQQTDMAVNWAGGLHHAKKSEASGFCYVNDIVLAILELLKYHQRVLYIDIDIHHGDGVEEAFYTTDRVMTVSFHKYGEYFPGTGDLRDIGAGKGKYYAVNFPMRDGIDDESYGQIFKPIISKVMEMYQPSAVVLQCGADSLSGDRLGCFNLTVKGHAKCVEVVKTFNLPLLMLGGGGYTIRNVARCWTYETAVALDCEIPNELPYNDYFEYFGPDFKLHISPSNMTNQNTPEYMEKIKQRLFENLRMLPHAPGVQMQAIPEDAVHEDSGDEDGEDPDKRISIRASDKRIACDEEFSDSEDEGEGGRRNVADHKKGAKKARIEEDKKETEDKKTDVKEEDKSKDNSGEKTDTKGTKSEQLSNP
- TEST NAME: HDAC2 inhibition, full IC50 measurement (Reaction Biology; fluorogenic p53 peptide RHKK(Ac)AMC)
- Format: biochemical
- CONDITIONS USED: Conc. 1.37E-08 M, t2
- Protocol: The assay was performed using 50 μM fluorogenic peptide from p53 residues 379-382 [RHKK(Ac)AMC] in a base reaction buffer of 50 mM Tris-HCl at pH 8.0, 137 mM NaCl, 2.7 mM KCl, 1 mM MgCl2, and freshly added 1 mg/ml BSA and 1% DMSO. […] Peptide concentrations were calculated based on mass of lyophilized peptide and its molecular weight. […]
Peptide text beside a SMILES is read from it.
Label No if HDAC2 activity raw data (signal) falls below 900000; label Yes in every other case.

Please review the following examples before continuing.
- COMPOUND: "N=C(N)NCCC[C@H]1NC(=O)[C@@H]2CCCN2C(=O)[C@H](CO)NC(=O)[C@@H](Cc2c[nH]cn2)NC(=O)[C@H](CCCCCS)NC(=O)[C@H](CCCCN)NC(=O)[C@H](Cc2ccc(O)cc2)NC(=O)[C@H]2CCCN2C(=O)[C@@H](CCC(N)=O)NC1=O [des3.1.0, SHA-dHis-Ser-Pro-dArg-dGln-dPro-Tyr-Lys] (HELM PEPTIDE1{K.[O=C([C@H](CCCCCS)N[*:1])[*:2]].[dH].S.P.[dR].[dQ].[dP].Y}$PEPTIDE1,PEPTIDE1,1:R1-9:R2$$$V2.0)"
  CATEGORY: "No"
- COMPOUND: "CCCC[C@H]1NC(=O)[C@H](Cc2ccccc2)NC(=O)[C@H](CCCCCS)NC(=O)[C@@H](CO)NC(=O)[C@H](CC(=O)O)NC(=O)[C@@H](CO)NC(=O)[C@@H](C)NC(=O)[C@H](CCCCN)NC1=O [des4.3.1.1, SHA-Phe-dNle-Lys-dAla-dSer-Asp-dSer] (HELM PEPTIDE1{D.[dS].[O=C([C@H](CCCCCS)N[*:1])[*:2]].F.[CCCC[C@@H](N[*:1])C(=O)[*:2]].K.[dA].[dS]}$PEPTIDE1,PEPTIDE1,1:R1-8:R2$$$V2.0)"
  CATEGORY: "Yes"
- COMPOUND: "C[C@H](O)[C@H]1NC(=O)[C@H](Cc2c[nH]c3ccccc23)NC(=O)[C@H](CCCCCS)NC(=O)[C@H](CCCCN)NC(=O)[C@@H](CC(=O)O)NC(=O)[C@@H](CCCCN)NC(=O)[C@@H](CO)NC(=O)[C@H](CC(N)=O)NC(=O)[C@H](CC(=O)O)NC1=O [des2.1.0, SHA-Trp-dThr-Asp-Asn-dSer-dLys-dAsp-Lys] (HELM PEPTIDE1{D.N.[dS].[dK].[dD].K.[O=C([C@H](CCCCCS)N[*:1])[*:2]].W.[dT]}$PEPTIDE1,PEPTIDE1,1:R1-9:R2$$$V2.0)"
  CATEGORY: "No"

Now look at this entry.
Prompt: # bool: HDAC2 activity raw data (signal) of CCCC[C@H]1NC(=O)[C@H](Cc2ccccc2)NC(=O)[C@H](CCCCCS)NC(=O)[C@@H](CCCNC(=N)N)NC(=O)[C@H](C)NC(=O)[C@@H](CO)NC(=O)[C@@H](C)NC(=O)[C@H](CCCCN)NC1=O [des4.3.1.3, SHA-Phe-dNle-Lys-dAla-dSer-Ala-dArg] (HELM PEPTIDE1{A.[dR].[O=C([C@H](CCCCCS)N[*:1])[*:2]].F.[CCCC[C@@H](N[*:1])C(=O)[*:2]].K.[dA].[dS]}$PEPTIDE1,PEPTIDE1,1:R1-8:R2$$$V2.0) >= 900000
Response: Yes

* * *

- TARGET ENTITY: HDAC2 (Homo sapiens)
- Construct: purchased Reaction Biology Corporation (assay run by the CRO)
- TEST NAME: HDAC2 inhibition, full IC50 measurement (Reaction Biology; fluorogenic p53 peptide RHKK(Ac)AMC)
- Format: biochemical
Peptide text beside a SMILES is read from it.
PROPERTY NAME: 2-Selectivity: fold potency for HDAC2 over HDAC6 (fold)
Field format: number, assumed fold, no unit text.

Prompt: Quote 2-Selectivity: fold potency for HDAC2 over HDAC6 reported for N=C(N)NCCC[C@@H]1NC(=O)[C@@H](CCCNC(=N)N)NC(=O)[C@H]2CCCN2C(=O)[C@@H](CO)NC(=O)[C@H](Cc2ccc(O)cc2)NC(=O)[C@H](CCCCCS)NC(=O)[C@H](CCc2ccccc2)NC(=O)[C@@H](CCC(N)=O)NC(=O)[C@H](CC(=O)O)NC1=O [des3.3.2, SHA-Tyr-dSer-dPro-dArg-Arg-Asp-dGln-C27] (HELM PEPTIDE1{D.[dQ].[O=C([C@H](CCc1ccccc1)N[*:1])[*:2]].[O=C([C@H](CCCCCS)N[*:1])[*:2]].Y.[dS].[dP].[dR].R}$PEPTIDE1,PEPTIDE1,1:R1-9:R2$$$V2.0) please.
Response: 3

* * *

- TARGET ENTITY: HDAC6 (Homo sapiens, UniProt Q9UBN7)
- Construct: purchased Reaction Biology Corporation (assay run by the CRO)
- Sequence (Q9UBN7 whole entry): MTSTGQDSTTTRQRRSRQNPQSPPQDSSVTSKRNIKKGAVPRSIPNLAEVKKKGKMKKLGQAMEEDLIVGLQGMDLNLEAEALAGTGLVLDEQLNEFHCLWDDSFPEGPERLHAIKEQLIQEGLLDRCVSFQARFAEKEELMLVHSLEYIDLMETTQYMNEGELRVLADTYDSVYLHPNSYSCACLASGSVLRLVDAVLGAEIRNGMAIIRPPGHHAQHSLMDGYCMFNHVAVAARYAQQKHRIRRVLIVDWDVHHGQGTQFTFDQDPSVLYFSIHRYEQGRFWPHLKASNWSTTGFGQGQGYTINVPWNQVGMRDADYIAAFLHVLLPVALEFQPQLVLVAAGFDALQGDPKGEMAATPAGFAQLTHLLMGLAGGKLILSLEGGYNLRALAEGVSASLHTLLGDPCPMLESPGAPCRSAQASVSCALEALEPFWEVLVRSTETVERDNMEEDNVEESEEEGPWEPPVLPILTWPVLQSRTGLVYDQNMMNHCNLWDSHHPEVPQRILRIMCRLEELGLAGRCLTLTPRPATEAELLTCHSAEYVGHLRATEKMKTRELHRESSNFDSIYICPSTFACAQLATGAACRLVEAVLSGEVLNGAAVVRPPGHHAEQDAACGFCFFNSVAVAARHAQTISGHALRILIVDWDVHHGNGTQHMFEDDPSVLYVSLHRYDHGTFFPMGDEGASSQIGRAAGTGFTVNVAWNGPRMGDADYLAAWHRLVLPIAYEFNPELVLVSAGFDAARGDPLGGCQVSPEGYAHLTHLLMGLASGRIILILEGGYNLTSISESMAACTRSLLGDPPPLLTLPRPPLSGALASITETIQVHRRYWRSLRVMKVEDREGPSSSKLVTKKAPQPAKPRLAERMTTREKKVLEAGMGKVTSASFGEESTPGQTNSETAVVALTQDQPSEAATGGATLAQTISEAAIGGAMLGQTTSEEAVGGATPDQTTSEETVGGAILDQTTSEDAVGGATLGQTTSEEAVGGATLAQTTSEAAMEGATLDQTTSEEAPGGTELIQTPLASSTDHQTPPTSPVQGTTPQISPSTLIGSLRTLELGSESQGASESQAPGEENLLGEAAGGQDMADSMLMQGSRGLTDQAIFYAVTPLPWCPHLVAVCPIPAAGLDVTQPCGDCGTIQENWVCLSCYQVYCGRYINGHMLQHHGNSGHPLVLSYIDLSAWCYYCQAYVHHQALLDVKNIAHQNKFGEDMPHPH
- TEST NAME: HDAC6 inhibition, full IC50 measurement (Reaction Biology; fluorogenic p53 peptide RHKK(Ac)AMC)
- Type: biochemical
- CONDITIONS USED: Conc. 4.12E-08 M, t2
Peptide text beside a SMILES is read from it.
PROPERTY NAME: HDAC6 activity raw data (signal)
# respond with the number and nothing more

Prompt: Name the recorded HDAC6 activity raw data (signal) of the molecule listed here: C[C@H](O)[C@H]1NC(=O)[C@H](Cc2c[nH]c3ccccc23)NC(=O)[C@H](CCCCCS)NC(=O)[C@H](CCCCN)NC(=O)[C@@H](CC(=O)O)NC(=O)[C@@H](CCCCN)NC(=O)[C@@H](CO)NC(=O)[C@H](CC(N)=O)NC(=O)[C@H](CC(=O)O)NC1=O [des2.1.0, SHA-Trp-dThr-Asp-Asn-dSer-dLys-dAsp-Lys] (HELM PEPTIDE1{D.N.[dS].[dK].[dD].K.[O=C([C@H](CCCCCS)N[*:1])[*:2]].W.[dT]}$PEPTIDE1,PEPTIDE1,1:R1-9:R2$$$V2.0)
Response: 230477
